Values were extracted from ChEMBL document CHEMBL5608210.

# target-under-test: Fatty acid-binding protein, liver (Homo sapiens)
# Sequence (P07148 whole entry): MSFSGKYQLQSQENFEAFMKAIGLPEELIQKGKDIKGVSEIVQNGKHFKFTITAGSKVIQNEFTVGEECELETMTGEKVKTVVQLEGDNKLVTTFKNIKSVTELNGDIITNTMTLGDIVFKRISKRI
# assay-notes: Inhibition of human FABP1 incubated for 3 mins by fluorescence based analysis
pIC50: −log10 of the molar value.
# key: entry, value: pIC50
property: pIC50

> print(dat)
                                chem.smiles                         target.under.test  property  reported.value
1  O=S(=O)(c1ccccc1-c1cccc(O)c1)N1CCN(S(=O)(=O)c2cccc3cccnc23)CC1  Fatty acid-binding protein, liver (Homo sapiens)     pIC50            5.93
2  N#Cc1ccc(-c2ccccc2S(=O)(=O)N2CCN(S(=O)(=O)c3cccc4cccnc34)CC2)cc1  Fatty acid-binding protein, liver (Homo sapiens)     pIC50            5.58
3  CCc1c(-c2ccccc2)c(-c2ccccc2)nn1-c1ccccc1-c1cccc(OCC(=O)O)c1  Fatty acid-binding protein, liver (Homo sapiens)     pIC50            5.57
